Measured TGI, listed per entry for reference.
test system: DU-145; assay: Cytotoxicity against human DU145 cells after 48 hrs by SRB assay; assay type: functional, cell-based; settings: Homo sapiens, DU-145, 48 h
Numeric answer only, unit µM assumed.

{"smiles": "C/C=C1\\NC(=O)[C@H](Cc2ccccc2)NC(=O)[C@@H](C(C)C)NC(=O)[C@@H]([C@H](C)CC)NC(=O)[C@H](NC(=O)[C@H](NC(=O)[C@H](CCCN)NC(=O)[C@H]2CCCN2C(=O)[C@H](NC(=O)[C@H](C)NC(=O)[C@@H](NC(=O)[C@H](NC(=O)CCCC(C)C)C(C)C)[C@@H](C)O)C(C)C)[C@H](C)CC)[C@H](C)OC(=O)[C@H](C(C)C)NC1=O", "units_label": "µM", "TGI": 3.87}

Note: attention shifts to another entry.
Prompt: Entry `C/C=C1\NC(=O)[C@H](Cc2ccccc2)NC(=O)[C@@H](C(C)C)NC(=O)[C@@H]([C@H](C)CC)NC(=O)[C@H](NC(=O)[C@H](NC(=O)[C@H](CCCN)NC(=O)[C@H]2CCCN2C(=O)[C@H](NC(=O)[C@@H](NC(=O)[C@H](CCC(=O)O)NC(=O)[C@H](NC(=O)CCCC(C)C)C(C)C)C(C)C)C(C)C)[C@H](C)CC)[C@H](C)OC(=O)[C@H](C(C)C)NC1=O` , system DU-145: what TGI was measured?
Response: 2.63
